- Test system: HepG2
- assay_details: GSK_TCMDC: Percent inhibition of human HepG2 cell line. Test compounds present at 10uM.
- Format: functional

{"molecule": "O=C(COc1ccccc1)NC1CCN(c2ccnc3cc(Cl)ccc23)C1.O=C(O)C(F)(F)F (centres undefined)", "Inhibition": "22%"}
{"molecule": "CC(C)COc1ccc(Cl)cc1Cc1nc(-c2nc3ccc(CN4CCCC4)cc3[nH]2)co1.Cl", "Inhibition": "50%"}
{"molecule": "COc1ccc(CNC(=O)Nc2cc3cc(-c4ccc(CN5CCCC5)cc4)ccc3n3c(C)nnc23)cc1", "Inhibition": "100%"}
{"molecule": "O=C(Nc1ccc(C(F)(F)F)cc1)c1cccc(S(=O)(=O)NC2CCN(CC3CCCCC3)CC2)c1.O=C(O)C(F)(F)F", "Inhibition": "18%"}
{"molecule": "O=C(c1cc2cccc([N+](=O)[O-])c2[nH]1)N1CCC(CCN2CCC(c3c[nH]c4ccccc34)CC2)CC1", "Inhibition": "45%"}
{"molecule": "Cc1ccc2c(=NN=Cc3cccc(Cl)c3)cc(C)[nH]c2c1", "Inhibition": "50%"}
{"molecule": "COc1ccc2c(c1)OC(C)(C)CC2=NOS(=O)(=O)c1ccc(C)cc1", "Inhibition": "10%"}
{"molecule": "CC(C)Cn1cc(C2CCN(CCN3CCC(CNC(=O)c4ccc(NC(=O)c5ccc(Cl)cc5)cc4)CC3)CC2)c2ccccc21", "Inhibition": "28%"}
{"molecule": "COc1cc2c(cc1N1CCN(C)CC1)N(C(=O)Nc1ccc(-c3ccncc3)c(Cl)c1Cl)CC2", "Inhibition": "10%"}

====

Listing of entries alongside the reported Inhibition.
- System: Plasmodium falciparum
- assay_details: GSK_TCMDC: Inhibition of Plasmodium falciparum Dd2 in whole red blood cells, using parasite LDH activity as an index of growth. Test compounds present at 2uM
- Assay type: functional

{"compound": "CCNc1cc(C(=O)N[C@@H](Cc2ccccc2)[C@H](O)CNC2(Cc3cccc(Cl)c3)CCC2)cc(N2CCCCS2(=O)=O)c1.Cl", "u": "%", "Inhibition": 83}
{"compound": "Oc1ccc(Cl)cc1Nc1nc(C(F)(F)F)nc2ccccc12", "u": "%", "Inhibition": 63}
{"compound": "N#Cc1ccc(-n2cc(C(=O)Nc3ccc4c(c3)CCN(C3CCC3)CC4)c(C(F)(F)F)n2)cc1.O=C(O)C(F)(F)F", "u": "%", "Inhibition": 99}
{"compound": "COc1cc(C(=O)Nc2cccc(-c3nc4ccccc4[nH]3)c2)ccc1OC(C)=O", "u": "%", "Inhibition": 37}
{"compound": "O=C(O)C(F)(F)F.c1cnc2ccc(NCc3ccc(-c4ccc(CNC5CCCC5)cc4)cc3)cc2c1", "u": "%", "Inhibition": 21}
{"compound": "COc1ccc2nc3cc(Cl)ccc3c(NCCN(C)C)c2c1", "u": "%", "Inhibition": 100}
{"compound": "Cc1ccc(CNC(=O)[C@H](CC(C)C)Nc2cc(C)nc(Nc3ccccc3)n2)cc1.O=C(O)C(F)(F)F", "u": "%", "Inhibition": 19}
{"compound": "O=C(Cc1cccc(OCCCN(Cc2cccc(C(F)(F)F)c2Cl)CC(c2ccccc2)c2ccccc2)c1)NCc1ccco1", "u": "%", "Inhibition": 84}
{"compound": "O=C(O)C(F)(F)F.O=[N+]([O-])c1ccc(Oc2ccccc2CNCC2CCN(CC3CCCCC3)CC2)cc1", "u": "%", "Inhibition": 28}
{"compound": "CO/C(=C\\C=C\\c1cc2cc(Cl)c(Cl)cc2[nH]1)C(=O)NCCCN1CCN(c2cccc(OCC(=O)Nc3cccc(C(=O)c4ccccc4)c3)c2)CC1", "u": "%", "Inhibition": 88}
{"compound": "CCCCNc1cc(C)nc(NCc2ccccc2)n1", "u": "%", "Inhibition": 37}
{"compound": "CNC(=O)c1cnc(Nc2ccc(N3CCN(C)CC3)cc2)nc1Nc1cccc(OC)c1.O=C(O)C(F)(F)F", "u": "%", "Inhibition": 100}
{"compound": "CN1CCC(C(=O)N(Cc2ccc(-c3ccc(CNCCc4ccc(S(C)(=O)=O)cc4)cn3)cc2)Cc2ccc3c(c2)OCO3)CC1.O=C(O)C(F)(F)F", "u": "%", "Inhibition": 51}
{"compound": "CC1(C)N=C(N)N=C(N)N1OCc1cc2ccccc2cc1CON1C(N)=NC(N)=NC1(C)C", "u": "%", "Inhibition": 51}
{"compound": "CCC1(c2ccccc2)N=C(N)N(CCCc2ccccc2)C1=O (stereo unspecified)", "u": "%", "Inhibition": 96}
{"compound": "CN(C)CCOc1ccc(N2CCN(CCCCNC(=O)c3ccc(NC(=O)c4ccc(Cl)cc4)cc3)CC2)cc1", "u": "%", "Inhibition": 98}
{"compound": "CN1CCN(C(C(=O)NCc2cc(Cl)cc(Cl)c2)c2ccc(Nc3cccc(C(F)(F)F)c3)cc2)CC1 (stereo unspecified)", "u": "%", "Inhibition": 98}
{"compound": "Clc1ccc(Nc2nc(NCc3ccccc3)nc(N/N=C/c3ccccn3)n2)cc1", "u": "%", "Inhibition": 91}
{"compound": "CN(C(=O)Cc1ccc(Cl)c(Cl)c1)C1CCN(CCCCCNC(=O)/C=C/c2ccc(Cl)c(Cl)c2)CC1", "u": "%", "Inhibition": 13}
{"compound": "Cc1nnsc1C(=O)Nc1ccc(-c2ccc(-c3nc4ccccc4[nH]3)s2)cc1", "u": "%", "Inhibition": 38}
{"compound": "CN1CCN(c2cc3c(cc2Cl)CCN3C(=O)Cc2ccc(Cl)c(NC(=O)Nc3cccc(C#N)c3)c2)CC1", "u": "%", "Inhibition": 40}
{"compound": "CC(C)CCNC(=O)C1Cc2c([nH]c3cc(Cl)ccc23)C2(CCN(CCc3ccccc3)CC2)N1 (stereo unspecified)", "u": "%", "Inhibition": 55}
{"compound": "O=C(/C=C/c1ccccc1Cl)Nc1ccc(Br)c(OCCN2CCN(CCN3CCOCC3)CC2)c1.O=C(O)C(=O)O", "u": "%", "Inhibition": 91}
{"compound": "COc1ccc(NC(=O)Nc2ccc(Nc3nc(C)cc(N(C)C)n3)cc2)cc1", "u": "%", "Inhibition": 99}
{"compound": "Cc1nc(Nc2ccc(C)c(Cl)c2)c2c(C)noc2n1", "u": "%", "Inhibition": 72}
{"compound": "CCC(C)C#Cc1c(C)nc(N)nc1N (stereo unspecified)", "u": "%", "Inhibition": 0}
{"compound": "COc1cc(-c2nc3c4ccccc4c4ccccc4c3[nH]2)cc(OC)c1OC", "u": "%", "Inhibition": 10}
{"compound": "O=C(/C=C/c1ccc(Cl)c(Cl)c1)NCCCCCCN1CCCN(C(=O)Nc2ccc(F)c(F)c2)CC1", "u": "%", "Inhibition": 2}
{"compound": "CCNc1cc(C(=O)N[C@@H](Cc2ccccc2)[C@H](O)CN[C@H](C)c2ccccc2)cc(N2CCCC2=O)c1", "u": "%", "Inhibition": 99}
{"compound": "Cc1cccc2nc(-c3ccc(-c4cccc(CNCCN(C)C)c4)cc3)[nH]c12.O=C(O)C(F)(F)F", "u": "%", "Inhibition": 98}
{"compound": "COc1ccc2nccc([C@@H](O)CN3CCC(NCc4nc5cc(F)c(F)cc5[nH]4)CC3)c2c1.O=C(O)C(=O)O", "u": "%", "Inhibition": 36}
{"compound": "Cc1cc(N(C)CCCN(C)C)nc(Nc2ccc(Br)cc2)n1", "u": "%", "Inhibition": 84}
{"compound": "O=C(N[C@H]1CCN(Cc2ccc(OCCCN3CCCCC3)cc2)C1)c1ccc2ccccc2c1", "u": "%", "Inhibition": 32}
{"compound": "O=C(N[C@@H](CC1CCCCC1)C(=O)NCCN1CCCC1)c1ccc(O)c(-c2ccc(Cl)c(Cl)c2)c1", "u": "%", "Inhibition": 99}
{"compound": "Cc1cc(-c2ccc(NC(=O)N3CCc4cc(Br)c(N5CCN(C)CC5)cc43)cc2)cc(C)n1", "u": "%", "Inhibition": 4}
{"compound": "O=c1cc(NCCCNCc2ccc3c(c2)OC(F)(F)O3)[nH]c2ccccc12", "u": "%", "Inhibition": 94}
